All figures here come from paper PMC3537848.

Target: Retinoid X receptor-α (RXRα) (Homo sapiens, UniProt P19793)
Sequence (P19793 223-462 limits assumed): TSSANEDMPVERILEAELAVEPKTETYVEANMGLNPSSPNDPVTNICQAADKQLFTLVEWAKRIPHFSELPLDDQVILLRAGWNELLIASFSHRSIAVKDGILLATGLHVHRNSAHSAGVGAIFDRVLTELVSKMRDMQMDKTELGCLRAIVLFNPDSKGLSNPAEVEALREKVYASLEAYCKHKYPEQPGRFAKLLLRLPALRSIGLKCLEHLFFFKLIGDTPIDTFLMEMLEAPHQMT
observed-property: IC50

input: Give the value of IC50 reported for the following: CC(C)=CCC/C(C)=C/Cc1c(O)c(O)cc2c(=O)c3c(O)c(CC=C(C)C)c(O)cc3oc12
output: 9.6 µM
